Origin of measurements: ChEMBL document CHEMBL3085671

- assay overview: Cytotoxicity against human U373-MAGI cells by CellTitre-Glo assay
- Type: cell-based
- conditions: U373-MAGI cells
measurement type: CC50

Looking for the measured CC50 of Oc1ccc(/C=C/c2cc(O)cc(O)c2)cc1 [RESVERATROL] , can you help? > 400 µM

---

- Tested on: Human immunodeficiency virus 1
- assay overview: Potentiation of resveratrol-induced antiviral activity against HIV1 infected in human U373-MAGI cells at 200 uM incubated for 2 hrs prior to viral infection followed by compound washout after 24 hrs measured 72 hrs post-infection by flow cytometry
- Assay type: functional, organism-based
- conditions: Human immunodeficiency virus 1, U373-MAGI
measurement type: pEC50
Numbers only, as −log10 of the molar value.

Looking for the measured pEC50 of NC1=NC(=O)N([C@H]2C[C@H](O)[C@@H](CO)O2)CN1 , can you help? 4.28

---

- Test system: Human immunodeficiency virus 1
- assay overview: Potentiation of deferoxamine-induced antiviral activity against HIV1 infected in human U373-MAGI cells at 200 uM incubated for 2 hrs prior to viral infection followed by compound washout after 24 hrs measured 72 hrs post-infection by flow cytometry
- Format: functional, organism-based
- conditions: Human immunodeficiency virus 1, U373-MAGI
measurement type: EC50 (µM)
Numbers only, in µM.

Looking for the measured EC50 of NC1=NC(=O)N([C@H]2C[C@H](O)[C@@H](CO)O2)CN1 [KP-1212] , can you help? 248

---

- assay overview: Cytotoxicity against human U373-MAGI cells by CellTitre-Glo assay
- Assay type: cell-based
- conditions: u373-magi
measurement type: CC50 (µM)
Numbers only, in µM.

Looking for the measured CC50 of Nc1ccn([C@@H]2O[C@H](CO)[C@@H](O)C2(F)F)c(=O)n1 , can you help? 62

---

- assay overview: Selectivity index, ratio of CC50 for human U373-MAGI cells to EC50 for HIV1 infected in human U373-MAGI cells
- Type: toxicity, cell-based
- conditions: read-out: Ratio CC50/EC50
measurement type: selectivity ratio

Looking for the measured selectivity ratio of CC(=O)N(O)CCCCCNC(=O)CCC(=O)N(O)CCCCCNC(=O)CCC(=O)N(O)CCCCCN , can you help? > 1
